Listed compounds paired with reported IC50
target: human TRPV4 (hTRPV4/CHO cells) (Homo sapiens, UniProt Q9HBA0); construct: expressed in transfected cells; host or cells: CHO-K1; assay: Test Example 1: TRPV4 inhibitory activity (IC50 value), 4α-PDD stimulation, Fluo4 calcium fluorescence (FLIPR TETRA); format: cell-based; conditions: Test Example 1, 4α-PDD stimulation, read-out: Test 1 IC50
Sequence (Q9HBA0 whole entry): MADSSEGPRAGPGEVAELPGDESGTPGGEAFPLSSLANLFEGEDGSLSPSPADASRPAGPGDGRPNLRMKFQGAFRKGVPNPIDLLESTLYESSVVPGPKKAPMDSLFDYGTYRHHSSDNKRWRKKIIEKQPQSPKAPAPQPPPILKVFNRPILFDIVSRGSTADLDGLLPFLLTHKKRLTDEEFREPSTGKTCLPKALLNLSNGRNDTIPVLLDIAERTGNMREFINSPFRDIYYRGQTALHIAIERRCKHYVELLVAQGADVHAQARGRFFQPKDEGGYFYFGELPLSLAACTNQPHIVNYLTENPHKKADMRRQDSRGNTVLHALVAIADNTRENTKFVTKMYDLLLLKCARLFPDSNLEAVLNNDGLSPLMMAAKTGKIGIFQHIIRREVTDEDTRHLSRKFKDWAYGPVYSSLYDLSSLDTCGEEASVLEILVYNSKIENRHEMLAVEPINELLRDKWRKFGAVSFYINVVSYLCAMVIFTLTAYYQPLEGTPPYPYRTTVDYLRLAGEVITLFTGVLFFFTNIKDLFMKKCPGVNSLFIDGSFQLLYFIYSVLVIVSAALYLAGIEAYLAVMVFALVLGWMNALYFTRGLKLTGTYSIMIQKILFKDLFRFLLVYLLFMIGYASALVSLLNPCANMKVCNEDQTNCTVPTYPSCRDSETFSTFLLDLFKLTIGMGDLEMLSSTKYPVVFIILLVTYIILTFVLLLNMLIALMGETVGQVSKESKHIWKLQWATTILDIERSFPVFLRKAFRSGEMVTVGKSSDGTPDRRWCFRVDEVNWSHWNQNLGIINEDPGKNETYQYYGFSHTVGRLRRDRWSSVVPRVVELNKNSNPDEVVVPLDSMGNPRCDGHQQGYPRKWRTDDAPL

Example cases with answers are listed next.
[
  {
    "compound": "Cc1nc(C)c(-c2csc(NC(=O)Cc3cc(OCCN(C)C)cc(C(=O)N[C@H](c4ccccc4)C(F)(F)F)c3)n2)s1",
    "IC50": "1000 to 8000 nM"
  },
  {
    "compound": "Cc1nc(C)c(-c2nc(NC(=O)Cc3c(F)cccc3F)sc2-c2ccc(N(C)C)cc2)s1",
    "IC50": "1000 to 8000 nM"
  },
  {
    "compound": "O=C(Nc1nc(-c2sc(CO)nc2CO)cs1)[C@@H]1C[C@@H](c2ccccc2)CN1S(=O)(=O)C(F)(F)F",
    "IC50": "100 to 1000 nM"
  },
  {
    "compound": "Cc1nc(CO)sc1-c1csc(NC(=O)C2CN(Cc3ccc(C(F)(F)F)cc3)C2)n1",
    "IC50": "< 100 nM"
  },
  {
    "compound": "Cc1nc([C@H](C)O)sc1-c1csc(NC(=O)Cc2ccc(S(=O)(=O)C(F)(F)F)cc2)n1",
    "IC50": "< 100 nM"
  },
  {
    "compound": "N#CCc1nc(CO)sc1-c1csc(NC(=O)C2CN(c3ccc(C(F)(F)F)cc3)C2)n1",
    "IC50": "< 100 nM"
  }
]

// moving on: another record for IC50
# input Look up IC50: Cc1nc(C)c(-c2csc(NC(=O)Cc3ccc(S(=O)(=O)C(F)(F)F)cc3)n2)s1 [Compound I-117]
# output 100 to 1000 nM
